Below: a set of entries, each annotated with reported fold change (FC).
# tested system: Protein cereblon/Apoptosis regulator Bcl-2 (Homo sapiens, UniProt P10415+Q96SW2)
# Sequence (P10415 whole entry, looked up): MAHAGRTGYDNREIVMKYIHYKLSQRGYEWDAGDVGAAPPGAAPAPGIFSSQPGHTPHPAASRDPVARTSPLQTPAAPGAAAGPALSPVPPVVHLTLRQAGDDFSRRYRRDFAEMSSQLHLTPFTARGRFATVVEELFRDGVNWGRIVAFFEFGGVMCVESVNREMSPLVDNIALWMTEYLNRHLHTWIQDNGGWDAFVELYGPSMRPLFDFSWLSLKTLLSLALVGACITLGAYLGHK
# Sequence (Q96SW2 whole entry, looked up): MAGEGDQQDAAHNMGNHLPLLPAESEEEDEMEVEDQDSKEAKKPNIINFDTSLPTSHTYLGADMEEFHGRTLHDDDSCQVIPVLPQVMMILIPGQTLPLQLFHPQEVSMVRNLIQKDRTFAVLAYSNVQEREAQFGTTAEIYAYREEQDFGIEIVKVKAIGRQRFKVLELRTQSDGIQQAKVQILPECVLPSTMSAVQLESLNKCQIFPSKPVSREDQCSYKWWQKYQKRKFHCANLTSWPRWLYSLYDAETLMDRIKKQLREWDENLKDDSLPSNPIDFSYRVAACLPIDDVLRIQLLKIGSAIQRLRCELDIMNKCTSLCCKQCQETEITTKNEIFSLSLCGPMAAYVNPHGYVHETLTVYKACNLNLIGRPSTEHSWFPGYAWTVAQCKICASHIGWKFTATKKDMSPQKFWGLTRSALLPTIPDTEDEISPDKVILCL
# assay remarks: Induction of CRBN-mediated Bcl-2 degradation in human HeLa cells assessed as relative abundance at 10 uM after 12 hrs by Western blot analysis (reference value: 1)
# Assay type: cell-based

compound	fold change (FC)
N#CC1=C(NCCC(=O)NCCOCCOCCNc2cccc3c2C(=O)N(C2CCC(=O)NC2=O)C3=O)c2ccc(Sc3ccc(Br)cc3)c3cccc(c23)C1=O (configuration not stated)	1
O=C(CCCCC(=O)NCCN1C(=O)c2cccc3c(Sc4ccc(Br)cc4)ccc(c23)C1=O)NCCCCCCNc1cccc2c1C(=O)N(C1CCC(=O)NC1=O)C2=O (configuration not stated)	0.8 to 1
O=C(CCCCC(=O)NCCN1C(=O)c2cccc3c(Sc4ccc(Br)cc4)ccc(c23)C1=O)NCCCCNc1cccc2c1C(=O)N(C1CCC(=O)NC1=O)C2=O (configuration not stated)	1
N#CC1=C(NCCC(=O)NCCCCCCNc2cccc3c2C(=O)N(C2CCC(=O)NC2=O)C3=O)c2ccc(Sc3ccc(Br)cc3)c3cccc(c23)C1=O (configuration not stated)	1.1
N#CC1=C(C#N)c2ccc(Sc3ccc(Br)cc3)c3cccc(c23)C1=O	1
N#CC1=C(NCCC(=O)O)c2ccc(Sc3ccc(Br)cc3)c3cccc(c23)C1=O	1.1
CC(C)(C)c1ccc(C(=O)NCCN2C(=O)c3cccc4c(Sc5ccc(Br)cc5)ccc(c34)C2=O)cc1	1
